Recorded values, source PubChem BioAssay (NCI).

- Test system: SK-OV-3 ovarian
- test details: NCI tumour cell line growth inhibition, 48 h; in the data active = GI50 below about 0.43 µM; inactive = the rest
Please answer using one outcome listed in Y (active), N (inactive)

Prompt: # lookup: test call for COc1cc(OC)cc(-c2n/c(=C\c3c(O)[nH]c4ccc(OC)cc34)cc3c2=Nc2ccccc2-3)c1
Completion: N

Prompt: # lookup: test call for Cc1ccccc1NC(=O)c1sc2nc(C)c(C(=O)/C=C/c3ccccc3)cc2c1N
Completion: N

Prompt: # lookup: test call for COc1ccc2c(c1)nc(C(=O)c1ccco1)c(C(F)(F)F)[n+]2[O-]
Completion: N

Prompt: # lookup: test call for C[CH2][Ge]([CH2]C)([CH2]C)[O]C(=O)C(OC(C)=O)c1ccccc1 (stereo not given)
Completion: N

Prompt: # lookup: test call for COc1cc(Nc2ncc(-c3ccccc3)o2)cc(OC)c1
Completion: N

Prompt: # lookup: test call for COc1cccc(CC(C)=C(c2ccc(OCCN3CCCCC3)cc2)c2ccc(OCCN3CCCCC3)cc2)c1
Completion: N

Prompt: # lookup: test call for CCCCCCCCCCCCCC[N+](C)(C)CCCCCCCCCCCCCC
Completion: N

Prompt: # lookup: test call for O=C1CC(c2cccc(F)c2)Nc2cc3c(cc21)OCO3 (stereo not given)
Completion: Y

Prompt: # lookup: test call for CCC(C)Nc1ccc(N)cc1 (stereo not given)
Completion: N

Prompt: # lookup: test call for O=C(Nc1ccccc1)Nc1ccc2cc3ccc(NC(=O)Nc4ccccc4)cc3nc2c1
Completion: N

---

Field: TGI. Provide a value for each of the compounds that follow.
- Tested on: DMS 273 small cell lung
- test details: NCI tumour cell line growth inhibition, 48 h

Prompt: Suppose we examine the compound CCOC(=O)C(=O)CC1=Nc2ccccc2SC(c2cccc(C)c2)C1 (configuration not stated) ; what TGI value has been reported?
Completion: 37.9 µM

Prompt: Suppose we examine the compound ClC/C=C/COC1CCCCO1 (configuration not stated) ; what TGI value has been reported?
Completion: > 100 µM

Prompt: Suppose we examine the compound O=C1N2Cc3c4ccc5c3CN3C(=O)N6Cc7c(ccc(c7CN1C6(c1ccccc1)C23c1ccccc1)OCCOCCNCCOCCO4)OCCOCCNCCOCCO5 (configuration not stated) ; what TGI value has been reported?
Completion: > 100 µM

Prompt: Suppose we examine the compound COc1ccc2c3c([nH]c2c1[N+](=O)[O-])C(C)N(Cc1ccccc1)CC3 (configuration not stated) ; what TGI value has been reported?
Completion: 11.6 µM

Prompt: Suppose we examine the compound c1ccc(C2OC3(CCC[C@H]4C[C@H]43)O[C@H]2c2ccccc2)cc1 (some centres not stated) ; what TGI value has been reported?
Completion: > 100 µM

Prompt: Suppose we examine the compound CN(C)C(=N/O)/C(=N\O)N(C)C ; what TGI value has been reported?
Completion: > 100 µM

Prompt: Suppose we examine the compound CCOC(=O)Oc1cc2c(c(OC)c1OC)-c1ccc(OC)c(=O)cc1C(NC(C)=O)CC2 (configuration not stated) ; what TGI value has been reported?
Completion: > 100 µM

Prompt: Suppose we examine the compound C[N+](C)(C)CC(=O)N/N=C(/C(=O)Nc1ccc(Br)cc1)C1C(=O)NC(=O)NC1=O ; what TGI value has been reported?
Completion: > 100 µM

Prompt: Suppose we examine the compound O=C(O)c1ccc(C2=Cc3cc(Cl)ccc3OC2)cc1 ; what TGI value has been reported?
Completion: > 100 µM

Prompt: Suppose we examine the compound O=c1[nH]c2ccccc2nc1/C=C(\O)c1ccccc1O ; what TGI value has been reported?
Completion: > 100 µM

Prompt: Suppose we examine the compound c1ccc2c3c([nH]c2c1)[C@H]1C2CCCCN2CN1CC3 (some centres not stated) ; what TGI value has been reported?
Completion: > 100 µM

Prompt: Suppose we examine the compound O=C(c1ccccc1)C1S(=O)(=O)OCCOS1(=O)=O ; what TGI value has been reported?
Completion: > 100 µM
